target: SRSF protein kinase 1 (Homo sapiens); conditions: at 1 µM;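 also: reported values are mean percent inhibition of SRPK1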
MEASURE: inhibition (%)
Reply numerically in %, unit not repeated.

A selection of reference data follows.
| MOLECULE | READOUT_UNITS | MEASURED_VALUE |
| --- | --- | --- |
| COc1cc2ncn(-c3cc(OCc4ccccc4C(F)(F)F)c(C(N)=O)s3)c2cc1OC | % | 0.47 |
| CC(C)=Cc1cccc2c1/C(=N/Nc1ccc(S(N)(=O)=O)cc1)C(=O)N2 | % | 2.55 |
| COC(=O)Nc1nc2cc(Oc3cccc(NC(=O)Nc4cc(C(F)(F)F)ccc4F)c3)ccc2[nH]1 | % | -3.74 |
| CCn1c(-c2nonc2N)nc2c(C#CC(C)(C)O)nc(CN3CCCC3)cc21 | % | -2.96 |
| CCn1c(-c2nonc2N)nc2cnc(Oc3cccc(NC(=O)c4ccc(OCCN5CCOCC5)cc4)c3)cc21 | % | -3.13 |
| N#Cc1c(NC(=O)c2cccc3ccccc23)sc2c1CCCC2 | % | -3.29 |
| COc1ccc(-c2nn3ncccc3c2-c2ccnc(Nc3ccc(Cl)c(C(F)(F)F)c3)n2)cc1 | % | -0.38 |
| O=C1Nc2ccc(C(=O)c3ccco3)cc2C1=Cc1cc(Cl)c(O)c(Cl)c1 | % | 1.6 |
| CCN1CCC(CC(=O)Nc2n[nH]c3nc(-c4cccs4)c(Br)cc23)CC1 | % | 1.67 |
| COC(=O)Nc1nc2cc(Oc3ccc(NC(=O)Nc4cccc(C(=O)O)c4)cc3)ccc2[nH]1 | % | 3.15 |

Which value of inhibition has been reported for COc1cc2ncn(-c3cc(O[C@@H](C)c4ccccc4Cl)c(C(N)=O)s3)c2cc1OC in the records?
-2.08

Dear colleague, I am looking for the recorded inhibition of the following molecule: Cn1cc(C=C2C(=O)Nc3cccnc32)c2ccccc21
-4.48

Which inhibition is reported for this molecule? CS(=O)(=O)CCN(CC#N)Cc1ccc(-c2ccc3ncnc(Nc4ccc(OCc5cccc(F)c5)c(Cl)c4)c3c2)o1
-1.01

For the molecule shown here, CC(=O)Nc1cccc(C#Cc2cncnc2Nc2ccc(OCc3cccc(F)c3)c(Cl)c2)n1 , give the reported inhibition.
6.55

Report inhibition for COc1ccc(-c2ccncc2)cc1C(N)=O please.
-2.49

Request the reported inhibition associated with COc1ccc2cc(-c3c(-c4ccncc4)nc(-c4ccc([S+](C)[O-])cc4)n3C)ccc2c1 (stereo not given)
-4.71

Please report the recorded inhibition for CCCN1CCC=C(c2ccc(Nc3nc(Nc4ccccc4C(N)=O)c4cc[nH]c4n3)c(C)c2)C1 .
12

Name the reported inhibition value associated with the molecule COc1cc2ncn(-c3cc(OCc4ccccc4Cl)c(C(N)=O)s3)c2cc1OC
-1.23

Query: inhibition; subject: Cc1nnc(-c2ccc(C)c(-c3ccc(C(=O)Nc4cccc(C#N)c4)cc3)c2)o1
-1.67

Record request: inhibition value, item COc1cc2c(cc1Nc1nc(N3CCc4ccccc43)c3cc[nH]c3n1)N(C(=O)CN(C)C)CC2
-3.76

Requested field: inhibition. Item: CN1CCC(C(=O)Nc2n[nH]c3nnc(-c4ccccc4)cc23)CC1
-0.73

Entry under review: Nc1nc(-c2ccc3c(c2)C(=Cc2cc(Br)c(O)c(Br)c2)C(=O)N3)cs1 . Reported inhibition?
1.39

Item under review: CCn1c(-c2nonc2N)nc2c(N3CCCC3)nccc21 . Reported inhibition?
0.58

Form field: reported inhibition of NS(=O)(=O)c1cccc(-c2ccc3c(NC(=O)C4CC4)n[nH]c3c2)c1
1.47

If you can, please state the reported inhibition value of Fc1cccc(COc2ccc(Nc3ncnc4sc(-c5cccs5)cc34)cc2Cl)c1 .
-1.11

Look at this molecule and give its reported inhibition. O=C1NC(=O)C(N2CCc3ccccc32)=C1c1ccc(Cl)cc1
-3.78

Please report the recorded inhibition for Cc1ccc(NC(=O)c2ccnc(N3CCCC3)c2)cc1-c1ccc(C(=O)NCC2CC2)cc1 .
-3.61

* * *

test system: Tyrosine-protein kinase ABL1 (Homo sapiens), P00519 [E255K]; conditions: at 1 µM
Sequence (P00519 whole entry E255K): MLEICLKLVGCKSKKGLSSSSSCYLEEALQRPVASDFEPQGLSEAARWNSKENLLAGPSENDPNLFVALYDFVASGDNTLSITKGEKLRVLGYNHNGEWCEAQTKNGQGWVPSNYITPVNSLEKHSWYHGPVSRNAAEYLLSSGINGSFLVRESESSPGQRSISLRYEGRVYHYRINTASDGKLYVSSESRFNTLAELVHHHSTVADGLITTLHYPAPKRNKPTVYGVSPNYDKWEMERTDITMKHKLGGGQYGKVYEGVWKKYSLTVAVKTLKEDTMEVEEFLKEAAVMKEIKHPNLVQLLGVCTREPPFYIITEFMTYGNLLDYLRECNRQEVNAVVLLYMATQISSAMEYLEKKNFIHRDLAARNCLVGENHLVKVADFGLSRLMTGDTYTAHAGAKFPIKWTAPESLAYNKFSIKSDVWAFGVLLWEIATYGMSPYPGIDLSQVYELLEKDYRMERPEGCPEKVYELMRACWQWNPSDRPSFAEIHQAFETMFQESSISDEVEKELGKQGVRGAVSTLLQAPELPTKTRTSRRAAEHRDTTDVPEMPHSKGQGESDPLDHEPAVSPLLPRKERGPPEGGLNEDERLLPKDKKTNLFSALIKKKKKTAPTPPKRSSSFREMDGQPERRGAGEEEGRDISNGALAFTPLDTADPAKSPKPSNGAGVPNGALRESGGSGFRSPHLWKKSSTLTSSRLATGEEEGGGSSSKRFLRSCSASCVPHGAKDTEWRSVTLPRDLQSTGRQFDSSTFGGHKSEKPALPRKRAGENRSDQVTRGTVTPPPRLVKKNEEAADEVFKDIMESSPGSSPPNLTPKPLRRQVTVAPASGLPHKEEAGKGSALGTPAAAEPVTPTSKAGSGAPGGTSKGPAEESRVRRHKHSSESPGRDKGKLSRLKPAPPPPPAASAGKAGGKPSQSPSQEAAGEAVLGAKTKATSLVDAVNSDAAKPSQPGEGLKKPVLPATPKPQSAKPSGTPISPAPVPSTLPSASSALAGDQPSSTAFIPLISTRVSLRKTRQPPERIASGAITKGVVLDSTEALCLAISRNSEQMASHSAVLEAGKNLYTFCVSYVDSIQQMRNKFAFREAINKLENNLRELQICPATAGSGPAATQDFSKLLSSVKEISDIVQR
Tick Satisfied if inhibition is 9% or greater. Tick Not satisfied if inhibition is less than 9%.

| COMPOUND_STRUCTURE | CLASS |
| --- | --- |
| O=C(Nc1n[nH]c2nc(-c3ccco3)c(Br)cc12)C1CC1 | Not satisfied |

Quick check: does O=C1NC(=O)C(N2CCc3ccccc32)=C1c1ccc(Cl)cc1 have inhibition greater than or equal to 9%?
Not satisfied

Reported inhibition at or above 9%? CS(=O)(=O)Nc1ccc(N/C=C2\C(=O)Nc3ccccc32)cc1
Not satisfied

Could you tell me if the measured inhibition of c1cnn2ncc(-c3ccnc(Nc4ccc5c(c4)OCCO5)n3)c2c1 reaches 9% or more?
Satisfied

Does the reported inhibition for COc1cccc(-n2ncc3c(N/N=C/c4cccc(F)c4)ncnc32)c1 fall at or above the 9% mark?
Satisfied

inhibition >= 9% for COc1cc2ncn(-c3cc(O[C@H](C)c4ccccc4Cl)c(C(N)=O)s3)c2cc1OC ?
Satisfied

Check the entry CCCN1CCC=C(c2ccc(Nc3nc(Nc4ccccc4C(N)=O)c4cc[nH]c4n3)c(C)c2)C1 : does inhibition equal or exceed 9%?
Not satisfied

Hi team, for COc1cc2c(cc1Nc1nc(N3CCc4ccccc43)c3cc[nH]c3n1)N(C(=O)CN(C)C)CC2 , is the recorded inhibition at or above 9%?
Not satisfied

* * *

Attribute: inhibition
biological target: Tyrosine-protein kinase Lyn (Homo sapiens) (UniProt P07948); conditions: at 0.1 µM;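 also: mean inhibition of the LYN A splice variant of the kinase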
Sequence (P07948 2-512 limits assumed): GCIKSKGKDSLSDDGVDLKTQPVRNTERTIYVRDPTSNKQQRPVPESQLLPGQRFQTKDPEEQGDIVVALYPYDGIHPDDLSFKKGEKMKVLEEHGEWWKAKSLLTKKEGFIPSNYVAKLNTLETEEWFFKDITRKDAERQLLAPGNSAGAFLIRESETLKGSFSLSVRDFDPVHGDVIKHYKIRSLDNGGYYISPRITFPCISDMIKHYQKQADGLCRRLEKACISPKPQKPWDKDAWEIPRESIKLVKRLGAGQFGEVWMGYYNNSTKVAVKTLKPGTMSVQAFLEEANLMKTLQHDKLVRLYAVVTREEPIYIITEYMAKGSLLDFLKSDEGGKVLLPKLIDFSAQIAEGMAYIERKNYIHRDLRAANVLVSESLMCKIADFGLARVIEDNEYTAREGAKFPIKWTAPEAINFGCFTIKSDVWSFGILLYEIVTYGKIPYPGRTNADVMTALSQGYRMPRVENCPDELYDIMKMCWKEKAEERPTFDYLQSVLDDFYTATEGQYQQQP
Description: GSK_PKIS: LYN A (splice variant) mean inhibition at 0.1 uM [Nanosyn]
Please give a number only; it is taken to be in %.

Recorded inhibition, per entry:
| MOLECULE | TARGET_UNDER_TEST | READOUT_UNITS | inhibition |
| --- | --- | --- | --- |
| CCCN1CCC=C(c2ccc(Nc3nc(Nc4ccccc4C(N)=O)c4cc[nH]c4n3)c(C)c2)C1 | Tyrosine-protein kinase Lyn (Homo sapiens) (UniProt P07948) | % | 2.75 |
| c1cnn2ncc(-c3ccnc(Nc4ccc5c(c4)OCCO5)n3)c2c1 | Tyrosine-protein kinase Lyn (Homo sapiens) (UniProt P07948) | % | 7.12 |
| COC(=O)Nc1nc2cc(Oc3cccc(NC(=O)Nc4cc(C(F)(F)F)ccc4F)c3)ccc2[nH]1 | Tyrosine-protein kinase Lyn (Homo sapiens) (UniProt P07948) | % | 7.9 |
| Nc1ncnc2occ(-c3ccc(NC(=O)Nc4cccc(C(F)(F)F)c4)cc3)c12 | Tyrosine-protein kinase Lyn (Homo sapiens) (UniProt P07948) | % | 19.4 |
| COc1cc2ncn(-c3cc(OCc4ccccc4C(F)(F)F)c(C(N)=O)s3)c2cc1OC | Tyrosine-protein kinase Lyn (Homo sapiens) (UniProt P07948) | % | 6.12 |
| COc1cc2ncn(-c3cc(O[C@@H](C)c4ccccc4Cl)c(C(N)=O)s3)c2cc1OC | Tyrosine-protein kinase Lyn (Homo sapiens) (UniProt P07948) | % | 6.39 |
| CC1=C(C(=O)Nc2ccc3[nH]ncc3c2)C(c2ccc(F)cc2)NC(=O)N1 (stereo not given) | Tyrosine-protein kinase Lyn (Homo sapiens) (UniProt P07948) | % | 2.06 |
| COc1ccc(-c2coc3ncnc(N)c23)cc1 | Tyrosine-protein kinase Lyn (Homo sapiens) (UniProt P07948) | % | 5.38 |

Would you kindly share the measured inhibition for CS(=O)(=O)CCNCc1nc(-c2ccc3ncnc(Nc4ccc(F)c(Cl)c4)c3c2)cs1 ?
4.29

Could you tell me which inhibition is on file for CS(=O)(=O)CCNCc1ccc(-c2ccc3ncnc(Nc4ccc(OCc5cccc(F)c5)c(C(F)(F)F)c4)c3c2)o1 ?
6.53

What inhibition value was documented for this molecule, COc1cc2c(cc1Nc1nc(N3CCc4ccccc43)c3cc[nH]c3n1)N(C(=O)CN(C)C)CC2 ?
1.75

Can you look up the measured inhibition of Cn1cc(C=C2C(=O)Nc3cccnc32)c2ccccc21 for me?
6.97

Item CC1=C(C(=O)Nc2ccc3[nH]ncc3c2)C(c2ccc(Cl)c(Cl)c2)CC(=O)N1 (stereo not given) has what recorded inhibition?
3.35

inhibition lookup needed for O=C1NC(=O)C(c2cccc(Cl)c2)=C1Nc1ccc(O)c(Cl)c1 , thanks.
1.27

# inhibition lookup, item CCn1c(-c2nonc2N)nc2c(C#CC(C)(C)O)nc(OC[C@@H](N)c3ccccc3)cc21
-0.29

# lookup: inhibition of Cc1ccc(NC(=O)c2ccnc(N3CCCC3)c2)cc1-c1ccc(C(=O)NCC2CC2)cc1
3.64

I would be grateful if you could share the reported inhibition for CN1CCC(C(=O)Nc2n[nH]c3nnc(-c4ccccc4)cc23)CC1 .
5.18

Looking for the measured inhibition of CCCN1CCC(Oc2cc(Nc3nc(Nc4cccc(F)c4C(N)=O)c4cc[nH]c4n3)c(OC)cc2Cl)CC1 , can you help?
0

Fill in the blank: the reported inhibition of COc1ccc2cc(-c3c(-c4ccncc4)nc(-c4ccc([S+](C)[O-])cc4)n3C)ccc2c1 (stereo not given) is ____.
2.95

Entry Cc1cccc(-c2n[nH]cc2-c2ccc3ncccc3n2)n1 has what inhibition?
0.89
